Reference source for all entries: patent US11801252B2

# Assay Overview: In vivo food effects study in healthy subjects (Test Example 3)
# Design: species or system human (healthy male subjects)
# Recorded Conditions: male, human, plasma, po, 300 mg, after Test Formulation 300 mg single oral, after a high-fat meal, N = 24, Mean ± SD, read-out: Cmax of SNAC
Parameter Measured: Cmax
Kindly report the value followed by its unit.

Qu. Could you tell me which Cmax is on file for O=C([O-])CCCCCCCNC(=O)c1ccccc1O.[Na+] [SNAC, sodium 8-(salicylamido)caprylate] ?
Ans. 1120 ng/mL

====

# Assay Overview: In vivo pharmacokinetics study in healthy subjects, 75-450 mg single dose, fasting (Test Example 2)
# Design: species or system human (healthy male subjects)
# Recorded Conditions: human, blood; after Formulation 5, dose group D 450 mg (equal SNAC content), single oral, fasting, healthy male subjects, N = 15; Mean ± SD; read-out: MRT0-∞ of SNAC
# Method: To study the pharmacokinetic characteristics of 75 mg, 150 mg, 300 mg and 450 mg doses of abiraterone acetate tablets in healthy subjects after a single oral administration under fasting state. A single-center, open-label, sequential trial design was applied. […] The blood concentration of abiraterone at different time points after dosing was determined by HPLC-MS/MS. Pharmacokinetic parameters were calculated using non-compartmental model and statistically analyzed. […]
Parameter Measured: MRT inf (h)
Supply the numeric figure in h, leaving out any unit text.

Qu. Could you tell me which MRT inf is on file for O=C([O-])CCCCCCCNC(=O)c1ccccc1O.[Na+] [SNAC, sodium 8-(salicylamido)caprylate] ?
Ans. 1.53

====

# Assay Overview: In vivo pharmacokinetics study in healthy subjects, 75-450 mg single dose, fasting (Test Example 2)
# Design: species or system human (healthy male subjects)
# Recorded Conditions: human, blood; after Formulation 5, dose group A 75 mg (equal SNAC content), single oral, fasting, healthy male subjects, N = 16; Mean ± SD; read-out: MRT0-t of SNAC
Parameter Measured: MRT last (h)
Supply the numeric figure in h, leaving out any unit text.

Qu. Could you tell me which MRT last is on file for O=C([O-])CCCCCCCNC(=O)c1ccccc1O.[Na+] [SNAC, sodium 8-(salicylamido)caprylate] ?
Ans. 1.32

====

# Assay Overview: In vivo pharmacokinetics study in healthy subjects, 75-450 mg single dose, fasting (Test Example 2)
# Design: species or system human (healthy male subjects)
# Recorded Conditions: human, blood; after Formulation 5, dose group C 300 mg (equal SNAC content), single oral, fasting, healthy male subjects, N = 15; Mean ± SD; read-out: MRT0-t of SNAC
Parameter Measured: MRT last (h)
Supply the numeric figure in h, leaving out any unit text.

Qu. Could you tell me which MRT last is on file for O=C([O-])CCCCCCCNC(=O)c1ccccc1O.[Na+] [SNAC, sodium 8-(salicylamido)caprylate] ?
Ans. 1.28

====

# Assay Overview: In vivo pharmacokinetics study in healthy subjects, 75-450 mg single dose, fasting (Test Example 2)
# Parameters: species or system human (healthy male subjects)
# Recorded Conditions: human, plasma; after Formulation 5, dose group D 450 mg (equal SNAC content), single oral, fasting, healthy male subjects, N = 15; median
Parameter Measured: Tmax
Kindly report the value followed by its unit.

Qu. Could you tell me which Tmax is on file for O=C([O-])CCCCCCCNC(=O)c1ccccc1O.[Na+] [SNAC, sodium 8-(salicylamido)caprylate] ?
Ans. 30 min
